// provenance: patent US20240108738A1

- Target Or Test System: T1, Human NKp46 Fc tag (Acro Biosystems, NC1-H5257) (human, UniProt O76036 22-255)
- T1 construct: bought; also called Fc-tagged human NKp46
- T1 sequence (O76036 22-255 limits assumed): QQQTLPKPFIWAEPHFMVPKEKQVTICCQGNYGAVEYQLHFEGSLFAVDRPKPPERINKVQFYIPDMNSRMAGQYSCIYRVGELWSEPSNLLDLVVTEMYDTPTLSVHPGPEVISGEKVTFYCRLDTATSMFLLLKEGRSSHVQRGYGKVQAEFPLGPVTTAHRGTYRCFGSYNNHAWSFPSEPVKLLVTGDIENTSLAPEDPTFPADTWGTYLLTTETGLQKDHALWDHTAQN
- Test Description: SPR Method 1 and/or 2
Numbered stars: 1 amine (or outer) side, 2 acyl side, 3 side chain; on linkers, the order of the positions; unused ones are H or OH. Bridge positions count the residues as written; N and C are the ends. Square brackets hold non-standard residues; d marks the D form. Ends that are not written are not given here. * marks the point of attachment. TATA = O=C(CC[*:1])N1CN(C(=O)CC[*:2])CN(C(=O)CC[*:3])C1; Trp(5-F) = N[C@@H](Cc1c[nH]c2ccc(F)cc12)C(=O)O; cisHyp = O=C(O)[C@@H]1C[C@H](O)CN1; Cba = N[C@@H](CC1CCC1)C(=O)O; Pent4ynoyl = C#CCCC(=O)*
In plain terms, low Kd, meaning strictly below 500 nM, gives true, and everything else gives false.

Study these solved cases before continuing.
Binder	Label Value
ACNLQAPCMLTGKVCA-NH2 (linker 2-8-15 via TATA; also: scaffold TATA, TATB or TBMT, scaffold TATA) [BCY15099]	false
ACNLQAPCMLTGRVCA-NH2 (linker 2-8-15 via TATA; also: scaffold TATA, TATB or TBMT, scaffold TATA) [BCY18323]	false
Ac-CY[Cba]PDYLC[dV]DEYC-NH2 (linker 1-8-13 via TATA, scaffold TATA) [BCY18443]	true
ACNLQA[cisHyp]CMLTGKVCA-NH2 (linker 2-8-15 via TATA, scaffold TATA) [BCY18310]	false
Ac-CY[Cba]PDYLC[dA]DEYCK(Pent4ynoyl)-NH2 (linker 1-8-13 via TATA; SMILES C#CCCC(=O)NCCCC[C@H](NC(=O)[C@@H]1CSCCC(=O)N2CN3CN(C2)C(=O)CCSC[C@H](NC(=O)[C@H](CC(C)C)NC(=O)[C@H](Cc2ccc(O)cc2)NC(=O)[C@H](CC(=O)O)NC(=O)[C@@H]2CCCN2C(=O)[C@H](CC2CCC2)NC(=O)[C@H](Cc2ccc(O)cc2)NC(=O)[C@@H](NC(C)=O)CSCCC3=O)C(=O)N[C@H](C)C(=O)N[C@@H](CC(=O)O)C(=O)N[C@@H](CCC(=O)O)C(=O)N[C@@H](Cc2ccc(O)cc2)C(=O)N1)C(N)=O, scaffold TATA) [BCY17224]	true

Is Kd strictly under 500 nM for the entry ACDLTTHNCQ[Trp(5-F)]GICA-NH2 (linker 2-9-14 via TATA, scaffold TATA) [BCY19725] ?
true

Is Kd strictly under 500 nM for the entry ACDLTLHNCQWGICA-NH2 (linker 2-9-14 via TATA; also: scaffold TATA, TATB or TBMT, scaffold TATA) [BCY18278] ?
true

Is Kd strictly under 500 nM for the entry ACYLPDWLCGDEYCA-NH2 (linker 2-9-14 via TATA; also: scaffold TATA, TATB or TBMT, scaffold TATA) [BCY14455] ?
true
